- test-summary: Drug combination efficacy study in advanced systemic P388 lymphocytic leukemia model
- Type: in vivo, mice
- reported-conditions: female, B6D2F1, mouse, in vivo, ip, single agent, ip q4dx3; repeat cisplatin study; read-out: MTD
- Method: Female B6D2F1 mice (Charles River Laboratories, Raleigh, N.C.) were used in these studies. […] For efficacy studies, P388 lymphocytic leukemia were harvested aseptically from the peritoneal cavity of donor mice, pooled, diluted with Earle's Balanced Salt Solution and trypan blue, and counted using a hemocytometer. […] The tumor inoculum was tested for bacterial contamination as determined by a 24-hr incubation in thioglycollate broth. […]
result-type: MTD (mg/kg)
Numbers only, in mg/kg.

Sample CS(=O)(=O)O.Cc1ccc(C(=O)N(CCCN)[C@@H](c2nc3cc(Cl)ccc3c(=O)n2Cc2ccccc2)C(C)C)cc1 ; MTD observed: 7.2

###

- test-summary: Drug combination efficacy study in advanced systemic P388 lymphocytic leukemia model
- Type: in vivo, mice
- reported-conditions: female, B6D2F1, mouse, in vivo, ip, single agent, ip Days 2, 6, 10; gemcitabine study; read-out: MTD
Exercise: for every item that follows, state its recorded MTD.

compound | result-type | measured-result
Nc1ccn([C@@H]2O[C@H](CO)[C@@H](O)C2(F)F)c(=O)n1 [Gemcitabine, gemcitabine, reference compound] | MTD | ≥ 200 mg/kg

// below: MTD requested for another compound
CS(=O)(=O)O.Cc1ccc(C(=O)N(CCCN)[C@@H](c2nc3cc(Cl)ccc3c(=O)n2Cc2ccccc2)C(C)C)cc1 [Compound A] has a reported MTD of ≥ 10 mg/kg

###

- test-summary: Drug combination efficacy study in advanced systemic P388 lymphocytic leukemia model
- Type: in vivo, mice
- reported-conditions: female, B6D2F1, mouse, in vivo, ip, single agent, ip Days 2, 6, 10; doxorubicin study; read-out: MTD
result-type: MTD (mg/kg)
Answers are plain numbers, in mg/kg.

What the record says about CS(=O)(=O)O.Cc1ccc(C(=O)N(CCCN)[C@@H](c2nc3cc(Cl)ccc3c(=O)n2Cc2ccccc2)C(C)C)cc1 : MTD is 4.3

###

- test-summary: Drug combination efficacy study in advanced systemic P388 lymphocytic leukemia model
- Type: in vivo, mice
- reported-conditions: female, B6D2F1, mouse, in vivo, intraperitoneal, increased from 7.2 alone; repeat cisplatin study; read-out: MTD of Compound A in combination with cisplatin
result-type: MTD (mg/kg)
Answers are plain numbers, in mg/kg.

Form field MTD, entry CS(=O)(=O)O.Cc1ccc(C(=O)N(CCCN)[C@@H](c2nc3cc(Cl)ccc3c(=O)n2Cc2ccccc2)C(C)C)cc1 : 12

###

I'd be grateful if you could share measured MTD for these entries.
- test-summary: Drug combination efficacy study in advanced systemic P388 lymphocytic leukemia model
- Assay type: in vivo, mice
- reported-conditions: female, B6D2F1, mouse, in vivo, ip, single agent, ip q4dx3 Days 2, 6, 10; irinotecan study; read-out: MTD
Give bare numbers, in mg/kg.

compound | MTD (mg/kg)
CCc1c2c(nc3ccc(OC(=O)N4CCC(N5CCCCC5)CC4)cc13)-c1cc3c(c(=O)n1C2)COC(=O)[C@]3(O)CC [Irinotecan, irinotecan, reference compound] | 150

Briefly, MTD measured for CS(=O)(=O)O.Cc1ccc(C(=O)N(CCCN)[C@@H](c2nc3cc(Cl)ccc3c(=O)n2Cc2ccccc2)C(C)C)cc1 : 6
